Cited source: patent US9938269B2

Below is a list of entries, each paired with its recorded microsomal CLint at 0.5 μM value.
Experiment: Determination of the microsomal half-life, rat liver microsomes
Conditions: rat, liver microsomes, pH 7.4
Where a name gives a salt, the structure may show the parent alone.
Measurement Kind: microsomal CLint at 0.5 μM

Cn1nccc1-c1cccc2c1CN(CCc1ccc3ccccc3n1)C2=O [Example 202, trifluoroacetate]: > 220 µL/min/mg
O=C1c2c(N3CCOCC3)ccnc2CN1CCc1ccccn1: < 100 µL/min/mg
O=C1c2c(N3CCC(C(F)F)C3)ccnc2CN1CCc1nc2ccccc2s1 (stereo not drawn): 100 to 220 µL/min/mg
CCn1c(CCN2Cc3cccc(N4CCOCC4)c3C2=O)nc2ccccc21: 100 to 220 µL/min/mg
O=C1c2nccc(-c3ccncc3)c2CN1CCc1cn2ccccc2n1: < 100 µL/min/mg
Cn1c(CCN2Cc3cccc(N4CCOCC4)c3C2=O)nc2ccccc21: < 100 µL/min/mg
Cc1ncccc1COc1cccc2c1C(=O)N(CCc1ccc3ccccc3n1)C2: 100 to 220 µL/min/mg
O=C1c2c(-c3cn[nH]c3)ccc(F)c2CN1CCc1cn2ccccc2n1: < 100 µL/min/mg
O=C1c2c(-c3cccnc3)ccnc2CN1CCc1nc2ccccc2s1 [compound 430, trifluoroacetate]: < 100 µL/min/mg
O=C1c2c(C3CCOCC3)ccnc2CN1CCc1ccc2ccccc2n1: 100 to 220 µL/min/mg
Cn1c(CCN2Cc3nccc(NC4COC4)c3C2=O)nc2ccccc21: < 100 µL/min/mg
COc1ccc(NC2COC2)c2c1CN(CCc1cn3ccccc3n1)C2=O: < 100 µL/min/mg
Cc1ccc(CCN2Cc3nccc(N4CCOCC4)c3C2=O)nc1C: 100 to 220 µL/min/mg
Cn1c(CCN2Cc3cccc(-c4ccncc4)c3C2=O)nc2c(F)cccc21 [Example 300, trifluoroacetate]: 100 to 220 µL/min/mg
O=C1c2cccc(-c3cc[nH]n3)c2CN1CCc1nc2ccccc2s1: > 220 µL/min/mg
Cn1nccc1-c1ccnc2c1C(=O)N(CCc1cn3ccccc3n1)C2: < 100 µL/min/mg
COc1ccc(-c2ccnc3c2C(=O)N(CCc2nc4ccccc4s2)C3)cc1 [compound 541, trifluoroacetate]: 100 to 220 µL/min/mg
O=C1c2c(-c3ccc(F)cc3)ccc(F)c2CN1CCc1cn2ccccc2n1: > 220 µL/min/mg
O=C1c2c(-c3ccncc3)ccnc2CN1CCc1nc2ccccc2s1: < 100 µL/min/mg
Cc1ccc2c(c1)nc(CCN1Cc3nccc(NC4COC4)c3C1=O)n2C: < 100 µL/min/mg
O=C1c2cccc(-c3cc[nH]n3)c2CN1CCc1ccc2ccccc2n1: > 220 µL/min/mg
CN1CCN(c2cccc3c2C(=O)N(CCc2ccc4ccccc4n2)C3)CC1: < 100 µL/min/mg
O=C1c2c(N3CCOCC3)ccnc2CN1CCc1ccc2ncccc2n1: < 100 µL/min/mg
CN(C)CCCn1c(CCN2Cc3cccc(-c4ccncc4)c3C2=O)nc2ccccc21 [Example 294, trifluoroacetate]: < 100 µL/min/mg
